System: HCI-008 (organoid from a HER2-enriched breast cancer xenograft)
Assay Overview: CTG-3D luminescence at 96 h relative to day-0 seeding control (ratio to day 0); higher = more growth / less cytotoxicity; PDxO 3D drug screen, 96 h, CTG-3D normalised to day-0 seeding control.
Applied Conditions: 0.00025 µM; days in culture: 244
Each item that follows carries a reported CTG-3D luminescence at 96 h.
Give the figure by itself; no unit, no explanation.

Ask | Which CTG-3D luminescence at 96 h value is on record for COc1cc2c(Oc3ccc4[nH]c(C)cc4c3F)ncnc2cc1OCCCN1CCCC1 ?
Reply | 1.7

Ask | Which CTG-3D luminescence at 96 h value is on record for O=C(c1ccc(F)c(F)c1Nc1ccc(I)cc1F)N1CC(O)([C@@H]2CCCCN2)C1 ?
Reply | 1.9

Ask | Which CTG-3D luminescence at 96 h value is on record for CN(Cc1cnc2nc(N)nc(N)c2n1)c1ccc(C(=O)N[C@@H](CCC(=O)O)C(=O)O)cc1 [methotrexate] ?
Reply | 1.83

Next:
Ask | Which CTG-3D luminescence at 96 h value is on record for Cc1nc(-c2cn3c(n2)-c2ccc(-c4cnn(C(C)(C)C(N)=O)c4)cc2OCC3)n(C(C)C)n1 ?
Reply | 1.94

Ask | Which CTG-3D luminescence at 96 h value is on record for Cc1cc(Nc2ncnc3ccc(NC4=NC(C)(C)CO4)cc23)ccc1Oc1ccn2ncnc2c1 ?
Reply | 1.81

Ask | Which CTG-3D luminescence at 96 h value is on record for C/C=C1\NC(=O)[C@H]2CSSCC/C=C/[C@H](CC(=O)N[C@H](C(C)C)C(=O)N2)OC(=O)[C@H](C(C)C)NC1=O ?
Reply | 2.08

Ask | Which CTG-3D luminescence at 96 h value is on record for Cc1cc(Nc2ncc(Cl)c(Nc3ccccc3S(=O)(=O)C(C)C)n2)c(OC(C)C)cc1C1CCNCC1 ?
Reply | 1.74

---

Tested on: HCI-015 (organoid from a triple-negative breast cancer xenograft)
Assay Overview: CTG-3D luminescence at 96 h relative to day-0 seeding control (ratio to day 0); higher = more growth / less cytotoxicity; PDxO 3D drug screen, 96 h, CTG-3D normalised to day-0 seeding control.
Applied Conditions: 0.00025 µM; days in culture: 218
Assay Endpoint: CTG-3D luminescence at 96 h
Give the figure by itself; no unit, no explanation.

The cases that follow already have their CTG-3D luminescence at 96 h on record.
Ask | State its CTG-3D luminescence at 96 h on HCI-015: Cc1cc(Nc2ncnc3ccc(NC4=NC(C)(C)CO4)cc23)ccc1Oc1ccn2ncnc2c1
Reply | 1.83

Ask | State its CTG-3D luminescence at 96 h on HCI-015: CC1(C)CCC(c2ccc(Cl)cc2)=C(CN2CCN(c3ccc(C(=O)NS(=O)(=O)c4ccc(N[C@H](CCN5CCOCC5)CSc5ccccc5)c(S(=O)(=O)C(F)(F)F)c4)cc3)CC2)C1
Reply | 1.53

Ask | State its CTG-3D luminescence at 96 h on HCI-015: CC(=O)O[C@H]1C(=O)[C@@]2(C)[C@H]([C@H](OC(=O)c3ccccc3)[C@]3(O)C[C@H](OC(=O)[C@H](O)[C@@H](NC(=O)c4ccccc4)c4ccccc4)C(C)=C1C3(C)C)[C@]1(OC(C)=O)CO[C@@H]1C[C@@H]2O
Reply | 1.53

Ask | State its CTG-3D luminescence at 96 h on HCI-015: O=C(c1ccc(F)c(F)c1Nc1ccc(I)cc1F)N1CC(O)([C@@H]2CCCCN2)C1
Reply | 1.31

Ask | State its CTG-3D luminescence at 96 h on HCI-015: CCN(c1cc(C#CCN2CCOCC2)cc(C(=O)NCc2c(C)cc(C)[nH]c2=O)c1C)[C@H]1CC[C@H](N(C)CCOC)CC1
Reply | 1.4

Ask | State its CTG-3D luminescence at 96 h on HCI-015: O=C(/C=C/c1cccnc1)NCCCCC1CCN(C(=O)c2ccccc2)CC1
Reply | 1.55

Next:
Ask | State its CTG-3D luminescence at 96 h on HCI-015: CS(=O)(=O)c1ccc(C(=O)Nc2ccc(Cl)c(-c3ccccn3)c2)c(Cl)c1
Reply | 1.48

Ask | State its CTG-3D luminescence at 96 h on HCI-015: C[C@H](NC(=O)CCC(F)(F)F)C(=O)N[C@@H]1C(=O)N(CCO)c2ncccc2-c2ccccc21
Reply | 1.29

Ask | State its CTG-3D luminescence at 96 h on HCI-015: COc1cc2c(Oc3ccc4[nH]c(C)cc4c3F)ncnc2cc1OCCCN1CCCC1
Reply | 1.53

Ask | State its CTG-3D luminescence at 96 h on HCI-015: C[C@]12CC[C@@H]3c4ccc(O)cc4C[C@@H](CCCCCCCCC[S+]([O-])CCCC(F)(F)C(F)(F)F)[C@H]3[C@@H]1CC[C@@H]2O (stereo partly specified)
Reply | 1.3

Ask | State its CTG-3D luminescence at 96 h on HCI-015: CCN1CCN(Cc2ccc(Nc3ncc(F)c(-c4cc(F)c5nc(C)n(C(C)C)c5c4)n3)nc2)CC1
Reply | 1.65

---

Each item that follows carries a reported CTG-3D luminescence at 96 h.
System: HCI-015
Assay Overview: CTG-3D luminescence at 96 h relative to day-0 seeding control (ratio to day 0); higher = more growth / less cytotoxicity; PDxO 3D drug screen, 96 h, CTG-3D normalised to day-0 seeding control.
Applied Conditions: 1 µM; days in culture: 191

The cases that follow already have their CTG-3D luminescence at 96 h on record.
Ask | State its CTG-3D luminescence at 96 h on HCI-015: NC1(C(=O)N[C@@H](CCO)c2ccc(Cl)cc2)CCN(c2nc[nH]c3nccc2-3)CC1
Reply | 1.24

Ask | State its CTG-3D luminescence at 96 h on HCI-015: C/C=C1\NC(=O)[C@H]2CSSCC/C=C/[C@H](CC(=O)N[C@H](C(C)C)C(=O)N2)OC(=O)[C@H](C(C)C)NC1=O
Reply | 0.256

Would you kindly look at the next entry?
Ask | State its CTG-3D luminescence at 96 h on HCI-015: CC(=O)O[C@H]1C(=O)[C@@]2(C)[C@H]([C@H](OC(=O)c3ccccc3)[C@]3(O)C[C@H](OC(=O)[C@H](O)[C@@H](NC(=O)c4ccccc4)c4ccccc4)C(C)=C1C3(C)C)[C@]1(OC(C)=O)CO[C@@H]1C[C@@H]2O
Reply | 0.566

---

Tested on: HCI-001 (organoid from a triple-negative breast cancer xenograft)
Assay Overview: CTG-3D luminescence at 96 h relative to day-0 seeding control (ratio to day 0); higher = more growth / less cytotoxicity; PDxO 3D drug screen, 96 h, CTG-3D normalised to day-0 seeding control.
Applied Conditions: 12.5 pM; days in culture: 364
Each item that follows carries a reported CTG-3D luminescence at 96 h.
Give the figure by itself; no unit, no explanation.

The cases that follow already have their CTG-3D luminescence at 96 h on record.
Ask | State its CTG-3D luminescence at 96 h on HCI-001: O=C(c1ccc(F)c(F)c1Nc1ccc(I)cc1F)N1CC(O)([C@@H]2CCCCN2)C1 [cobimetinib]
Reply | 1.35

Ask | State its CTG-3D luminescence at 96 h on HCI-001: NC(=O)Nc1cc(-c2cccc(F)c2)sc1C(=O)N[C@H]1CCCNC1 [AZD7762]
Reply | 1.53

Ask | State its CTG-3D luminescence at 96 h on HCI-001: C=CCn1c(=O)c2cnc(Nc3ccc(N4CCN(C)CC4)cc3)nc2n1-c1cccc(C(C)(C)O)n1 [adavosertib]
Reply | 1.41

Ask | State its CTG-3D luminescence at 96 h on HCI-001: Cc1nc(-c2cn3c(n2)-c2ccc(-c4cnn(C(C)(C)C(N)=O)c4)cc2OCC3)n(C(C)C)n1 [taselisib]
Reply | 1.5

Ask | State its CTG-3D luminescence at 96 h on HCI-001: C[C@@H]1COCCN1c1cc(C2([S@](C)(=N)=O)CC2)nc(-c2cc[nH]c3nccc2-3)n1 [ceralasertib]
Reply | 1.44

Would you kindly look at the next entry?
Ask | State its CTG-3D luminescence at 96 h on HCI-001: CC(C)n1nc(-c2ccc3oc(N)nc3c2)c2c(N)ncnc21 [sapanisertib]
Reply | 1.44

---

Each item that follows carries a reported CTG-3D luminescence at 96 h.
Test system: HCI-016 (organoid from a triple-negative breast cancer xenograft)
Assay Overview: CTG-3D luminescence at 96 h relative to day-0 seeding control (ratio to day 0); higher = more growth / less cytotoxicity; PDxO 3D drug screen, 96 h, CTG-3D normalised to day-0 seeding control.
Applied Conditions: 12.5 pM; days in culture: 190
Give the figure by itself; no unit, no explanation.

The cases that follow already have their CTG-3D luminescence at 96 h on record.
Ask | Which CTG-3D luminescence at 96 h value is on record for C[C@H](NC(=O)CCC(F)(F)F)C(=O)N[C@@H]1C(=O)N(CCO)c2ncccc2-c2ccccc21 ?
Reply | 1.45

Ask | Which CTG-3D luminescence at 96 h value is on record for Nc1ccn([C@@H]2O[C@H](CO)[C@@H](O)C2(F)F)c(=O)n1 ?
Reply | 1.61

Ask | Which CTG-3D luminescence at 96 h value is on record for CCc1c2c(nc3ccc(O)cc13)-c1cc3c(c(=O)n1C2)COC(=O)[C@]3(O)CC ?
Reply | 1.83

Would you kindly look at the next entry?
Ask | Which CTG-3D luminescence at 96 h value is on record for CCN1CCN(Cc2ccc(Nc3ncc(F)c(-c4cc(F)c5nc(C)n(C(C)C)c5c4)n3)nc2)CC1 ?
Reply | 1.98
